Assay: physchem
Assay type: physicochemical
Conditions: aqueous with cosolvent or surfactant or cyclodextrin
Below is a list of entries, each paired with its recorded solubility value.
Give the value, in units of µM, as a plain number.

Below, each entry is followed by its recorded solubility result.
compound	unitsSymbol	solubility
O=c1[nH]c(NCCc2ccc(F)cc2)nc2ccccc12 [Compound 10j]	µM	30
Oc1nc(NCc2ccccc2)nc2ccccc12 [Compound 10h]	µM	35
O=c1[nH]c(NCCCc2ccccc2)nc2ccccc12 [Compound 10k]	µM	30

Prompt: Consider the compound O=c1[nH]c(NCCc2ccccc2)nc2ccccc12 [Compound 10i] and give its measured solubility.
Response: 57

Prompt: O=c1[nH]c(Nc2ccc3c(c2)OCCO3)nc2ccccc12 [Compound 10c] ?
Response: 26

###

Assay: Cell viability assay (resazurin, 48 h) in Calu-3 cells
Assay type: cell-based
Conditions: human, Calu-3 cells (lung epithelium)
observationType: CC50 at 48 h (µM)
Give the value, in units of µM, as a plain number.

Prompt: Consider the compound O=c1[nH]c(Nc2cccc(-c3ccccc3)c2)nc2ccccc12 [Compound 10e] and give its measured CC50 at 48 h.
Response: 36

###

Test: in vitro
Settings: African green monkey
So basically, if CC50 comes in under 100 µM it's condition met, and if it's 100 µM or more it's condition not met.

Some solved entries appear below for comparison.
compound	groupLabel
COc1ccc(Nc2nc3ccccc3c(=O)[nH]2)cc1 [Compound 10a]	condition not met
O=c1[nH]c2ccccc2nc1Nc1ccc(F)cc1	condition not met
O=c1[nH]c(Nc2ccc(F)cc2)nc2ccccc12 [Compound 10b]	condition not met
O=c1[nH]c(NCCc2ccccc2)nc2ccccc12 [Compound 10i]	condition not met
COc1ccc(Nc2nc3ccccc3[nH]c2=O)cc1	condition not met

Prompt: Criterion: CC50 strictly below 100 µM. Is it met by O=c1[nH]c(N2CCN(c3cccc(C(F)(F)F)c3)CC2)nc2ccccc12 [Compound 10f] ?
Response: condition not met

Prompt: O=c1[nH]c(Nc2cccc(-c3ccccc3)c2)nc2ccccc12 [Compound 10e] ?
Response: condition met

Prompt: O=c1[nH]c(NCCc2ccc(F)cc2)nc2ccccc12 [Compound 10j] ?
Response: condition met

Prompt: O=c1[nH]c(NCCCc2ccccc2)nc2ccccc12 [Compound 10k] ?
Response: condition met

Prompt: Oc1nc(NCc2ccccc2)nc2ccccc12 [Compound 10h] ?
Response: condition met

###

Assay: physchem
Conditions: aqueous with cosolvent or surfactant or cyclodextrin
observationType: solubility (µM)
Give the value, in units of µM, as a plain number.

Prompt: Consider the compound O=c1[nH]c(Nc2ccc3c(c2)OCCO3)nc2ccccc12 [Compound 10c] and give its measured solubility.
Response: 26.2

Prompt: Oc1nc(NCc2ccccc2)nc2ccccc12 [Compound 10h] ?
Response: 35.3

Prompt: O=c1[nH]c2ccccc2nc1Nc1ccc2c(c1)OCCO2 [Compound 5d] ?
Response: 29.5

Prompt: O=c1[nH]c2ccccc2nc1Nc1ccc(Cl)cc1 [Compound 5b] ?
Response: 26.1

###

Below is a list of entries, each paired with its recorded remaining activity at 250 µM value.
Biological target: HsDHODH (Homo sapiens, UniProt Q02127)
Sequence (Q02127 whole entry): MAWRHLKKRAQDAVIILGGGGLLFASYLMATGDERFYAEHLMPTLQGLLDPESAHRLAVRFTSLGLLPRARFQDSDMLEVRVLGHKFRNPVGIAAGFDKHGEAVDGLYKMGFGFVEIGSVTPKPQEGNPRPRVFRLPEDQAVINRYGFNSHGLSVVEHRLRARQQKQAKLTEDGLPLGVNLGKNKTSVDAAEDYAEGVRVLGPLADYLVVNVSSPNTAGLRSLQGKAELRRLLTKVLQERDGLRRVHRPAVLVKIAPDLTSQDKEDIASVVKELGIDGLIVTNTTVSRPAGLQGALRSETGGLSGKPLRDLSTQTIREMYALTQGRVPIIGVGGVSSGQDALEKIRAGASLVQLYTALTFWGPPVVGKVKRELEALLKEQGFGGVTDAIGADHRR
Assay: HsDHODH inhibitory assay monitoring DCIP reduction (single dose 250 μM and concentration-response)
Conditions: read-out: Enzymatic Activity ± SD (%)

Below, each entry is followed by its recorded remaining activity at 250 µM result.
compound	remaining activity at 250 µM
O=c1[nH]c(NCCc2ccc(F)cc2)nc2ccccc12 [Compound 10j]	8.2%
O=c1[nH]c(Nc2ccc3c(c2)OCCO3)nc2ccccc12 [Compound 10c]	15.1%
O=c1[nH]c(NCCCc2ccccc2)nc2ccccc12 [Compound 10k]	18%
O=c1[nH]c(N2CCN(c3ccccc3)CC2)nc2ccccc12 [Compound 10g]	126%

Here's the next entry for you.
Prompt: Consider the compound O=c1[nH]c(Nc2ccc(-c3ccccc3)cc2)nc2ccccc12 [Compound 10d] and give its measured remaining activity at 250 µM.
Response: 49%
